tested on: SK-MEL-2 melanoma; assay: NCI tumour cell line growth inhibition, 48 h; in the data active means GI50 below about 0.43 µM; inactive means the rest
Outcome codes: Y (active), N (inactive)

compound	group_label
O=S(=O)([O-])c1ccc2c(c1)-c1nc-2nc2[n-]c(nc3nc(nc4[n-]c(n1)c1ccc(S(=O)(=O)[O-])cc41)-c1cc(S(=O)(=O)[O-])ccc1-3)c1ccc(S(=O)(=O)[O-])cc21.[Cu+2].[Na+]	N
Cc1c2cccnc2c(C)c2c1c1cc(CO)ccc1n2C	N
COc1cc(C(=O)c2cc(C)c3[nH]c4ccc(Cl)cc4c3c2C)cc(OC)c1OC	N
CC(SC(C)C(=O)N/N=C/c1cccc(Cl)c1)C(=O)N/N=C\c1cccc(Cl)c1 (centres undefined)	N
Cn1cc(C2=C(c3ccc4ccccc4c3)C(=O)NC2=O)c2ccccc21	N
Ic1ccc(Nc2nc3nonc3nc2Nc2ccc(I)cc2)cc1	Y
CNCCNc1c2c(c(NCCNC)c3c(CN(C)C)c[nH]c13)C(=O)c1ccccc1C2=O	N
CC(C)=C[C@@H]1C[C@H](C)[C@H]2CC[C@H](C)C3=C2[C@](O)(OC3=O)[C@]1(C)O	N
COc1ccc(N2C(=O)C(c3ccccc3)(c3ccccc3)C23C(=O)N(C)c2ccccc23)cc1 (centres undefined)	N
